# ASSAY_TARGET: T1, ZFP SBS#689 (synthetic)
# T1 chain: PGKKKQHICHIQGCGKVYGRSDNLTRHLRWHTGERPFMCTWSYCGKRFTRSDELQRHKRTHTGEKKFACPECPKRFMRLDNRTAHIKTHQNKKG
# ASSAY_OVERVIEW: EMSA
# MEASUREMENT_CONDITIONS: tags: MBP fusion
OUTCOME_MEASURE: pKd
API: returns pKd as number; meaning -log10 of concentration in mol/L.

Lab note: measured pKd of AAGGCGGAGA (dsDNA) DNA 1: AAGGCGGAGA DNA 2: TCTCCGCCTT was 7.08
